# Test system: MAP3K3
# condition_label: concentration: 1 μM, replicates: in singlicate; n = 1;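 note: KINOMEscan kinase panel screen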
result_type: %Inh (%)

- Cn1ccc2ncnc(Oc3ccc(Nc4nc5ccccc5[nH]4)cc3)c21: 0
- Cc1ccc(NC(=O)Nc2cc(C(C)(C)C)nn2-c2ccccc2)cc1: 0
- CC1=C(C(=O)Nc2cc3cn[nH]c3cc2F)C(c2ccc(C(F)(F)F)cc2)CC(=O)N1 (centres unmarked): 0
- O=c1cc(N2CCOCC2)nc2n(Cc3cccc(Cl)c3Cl)ccn12: 0
- O=C(O)COc1ncnc2cc(-c3ccc4[nH]ncc4c3)sc12: 9

====

# System: PIK3CD
# condition_label: concentration: 1 μM, replicates: in singlicate; n = 1
result_type: %Inh (%)

• CCn1c(-c2ccccn2)nc2cnccc21 [SB-736398] = 5
• CC(C)(C)c1ccc(C(=O)Nc2cn3cc(-c4cccnc4)ccc3n2)cc1 = 0
• Cc1ccc(C(=O)Nc2ccc(Nc3ccnc4cc(-c5ccccn5)ccc34)cc2O)cc1.Cl [GW440146] = 100
• Cl.O=C(Nc1cccc(-c2nn3ncccc3c2-c2ccnc(Nc3cccnc3)n2)c1)c1c(F)cccc1F [GSK312879] = 0
• Cc1cc(NCC(c2ccccc2)c2ccccc2)nc(NCc2ccc(C(F)(F)F)cc2)n1 [GW497681] = 0
• Cn1ccc2ncnc(Oc3ccc(NC(=O)Nc4ccccc4)cc3)c21 = 0
• COc1ccc2nc(-c3cccc(C)n3)nc(Nc3ccncc3)c2c1 [GSK204919] = 0
• Fc1cc(Cl)ccc1Nc1ccnc2cc(I)ccc12 [GW551191] = 0
• Nc1ncnc2[nH]c(-c3ccccc3)nc12 [AH5015] = 0
• Cn1cncc1-c1ccc2ncnc(Nc3ccc(OCc4ccccc4)cc3)c2c1 [GW320571] = 7
• COc1cc2nccc(Nc3ccc(NC(=O)c4ccc(C)cc4)c(O)c3)c2cc1OC.Cl [GW440132] = 0
• NC(=O)c1nnc2ccccc2c1N = 39
• Cl.Oc1ccc(-c2nc(-c3ccccc3)[nH]c2-c2ccncc2)cc1 [SB-428218] = 0
• Cc1c(O)cccc1Nc1ccnc2ccc(C(F)(F)F)cc12.Cl [GW466413] = 25
• COc1cc2ncnc(Nc3ccc4nc(-c5ccccc5)[nH]c4c3)c2cc1OC.Cl [GW282450] = 0
• Cc1cccc(-c2nc(Nc3ccncc3)c3ccccc3n2)n1 [GW855857] = 0
• Nc1nc(-c2nccs2)c(-c2ccnc3ccccc23)s1 [GW693542] = 0
• CC1=C(C(=O)Nc2cc3cn[nH]c3cc2F)C(c2ccc(C(F)(F)F)cc2)CC(=O)N1 (centres unmarked) [GSK429286] = 34
• Cc1cccc(-c2nc(-c3ccc(S(C)(=O)=O)cc3)sc2-c2ccnc(NCCc3ccccc3)c2)c1 = 26
• COc1cccc(-c2cc(-c3c[nH]nc3-c3ccccn3)ccn2)c1 [GW680338] = 0

====

Listed below: %Inh values for each entry.
# Tested on: JAK1(JH2domain-pseudokinase)
# condition_label: concentration: 1 μM, replicates: in singlicate; n = 1
result_type: %Inh (%)

* Cc1ccc(NC(=O)Nc2cc(C(C)(C)C)nn2-c2ccccc2)cc1 | 0
* Fc1cc(Cl)ccc1Nc1ccnc2cc(I)ccc12 | 0
* Cc1csc(-c2nc(Nc3ccncc3)c3ccccc3n2)n1 | 74

This collection of values is drawn from paper PMC5540273.
